- ASSAY OVERVIEW: clinical
- TEST CONDITIONS: human, plasma, intravenous, Total systemic clearance, cohorts 1-4 combined
READOUT NAME: Clearance (mL/min)
Give bare numbers, in mL/min.

What value of Clearance has been recorded for this entry: "C=CCNC1=C2C[C@@H](C)C[C@H](OC)[C@H](O)[C@@H](C)/C=C(\C)[C@H](OC(N)=O)[C@@H](OC)/C=C\C=C(/C)C(=O)NC(=CC1=O)C2=O"
860

* * *

- ASSAY OVERVIEW: clinical
- TEST CONDITIONS: human, plasma, intravenous, 100 mg/m2, AUCextra, Cohorts 1 & 2, 17-AAG 100 mg/m^2; Median
READOUT NAME: AUC (ng·h/mL)
One number for each entry, in ng·h/mL.

Endpoint output: AUC of C=CCNC1=C2C[C@@H](C)C[C@H](OC)[C@H](O)[C@@H](C)/C=C(\C)[C@H](OC(N)=O)[C@@H](OC)/C=C\C=C(/C)C(=O)NC(=CC1=O)C2=O [17-AAG, 17-Allylamino-17-demethoxygeldanamycin] . Value?
166

* * *

- ASSAY OVERVIEW: clinical
- TEST CONDITIONS: human, plasma, intravenous, 100 mg/m2, Tmax, Cohorts 1 & 2, 17-AAG 100 mg/m^2; Median
READOUT NAME: Tmax
Lab note: write values as number then unit, every time.

What does the data say about its Tmax? Entry: C=CCNC1=C2C[C@@H](C)C[C@H](OC)[C@H](O)[C@@H](C)/C=C(\C)[C@H](OC(N)=O)[C@@H](OC)/C=C\C=C(/C)C(=O)NC(=CC1=O)C2=O [17-AAG, 17-Allylamino-17-demethoxygeldanamycin]
1 h

* * *

- ASSAY OVERVIEW: clinical
- TEST CONDITIONS: human, plasma, intravenous, 100 mg/m2, MRT, Cohorts 1 & 2, 17-AAG 100 mg/m^2; Median
READOUT NAME: MRT
Your answer should be a number followed by the unit of measure.

I am curious: what MRT value has been reported for C=CCNC1=C2C[C@@H](C)C[C@H](OC)[C@H](O)[C@@H](C)/C=C(\C)[C@H](OC(N)=O)[C@@H](OC)/C=C\C=C(/C)C(=O)NC(=CC1=O)C2=O [17-AAG, 17-Allylamino-17-demethoxygeldanamycin] ?
2.89 h

* * *

- ASSAY OVERVIEW: clinical
- TEST CONDITIONS: human, plasma, intravenous, 100 mg/m2, Vz, Cohorts 1 & 2, 17-AAG 100 mg/m^2; Median
READOUT NAME: Vd (L)
Give bare numbers, in L.

Using the record for "C=CCNC1=C2C[C@@H](C)C[C@H](OC)[C@H](O)[C@@H](C)/C=C(\C)[C@H](OC(N)=O)[C@@H](OC)/C=C\C=C(/C)C(=O)NC(=CC1=O)C2=O" , report its Vd.
188
